ASSAY_DETAILS: Selectivity index, ratio of IC50 for human HL7702 cells to IC50 for human NCI-H1975 cells
Type: toxicity
Parameter: log(RatioIC50). Scope: all listed entries.
RESULT_TYPE: log(RatioIC50)

COc1ccc(/C=C2\CNC/C(=C\c3ccc(OC)c(OC)c3)C2=O)cc1OC    0.17
CCN1C/C(=C\c2ccc(OC)c(OC)c2)C(=O)/C(=C/c2ccc(OC)c(OC)c2)C1    0.06
COc1cc(/C=C/C(=O)CC(=O)/C=C/c2ccc(O)c(OC)c2)ccc1O [CURCUMIN]    0.71
COc1cc(/C=C2\CNC/C(=C\c3cc(OC)c(OC)c(OC)c3)C2=O)cc(OC)c1OC    0.28
Cc1ccc2nc(NCCN)c3ncc(C)n3c2c1 [BMS-345541]    0.28
CCC(=O)N1C/C(=C\c2cc(OC)c(OC)c(OC)c2)C(=O)/C(=C/c2cc(OC)c(OC)c(OC)c2)C1    0.39
CCCN1C/C(=C\c2ccc(OC)c(OC)c2)C(=O)/C(=C/c2ccc(OC)c(OC)c2)C1    0.27
COc1cc(/C=C2\CN(C(=O)C(C)C)C/C(=C\c3cc(OC)c(OC)c(OC)c3)C2=O)cc(OC)c1OC    0.81
CCN1C/C(=C\c2cc(OC)c(OC)c(OC)c2)C(=O)/C(=C/c2cc(OC)c(OC)c(OC)c2)C1    0.29
O=C1/C(=C/c2ccccc2F)CNC/C1=C\c1ccccc1F    0.59
COc1cc(/C=C2\CN(C)C/C(=C\c3cc(OC)c(OC)c(OC)c3)C2=O)cc(OC)c1OC    1.42
COc1ccc(/C=C2\CN(C)C/C(=C\c3ccc(OC)c(OC)c3)C2=O)cc1OC    0.44
COc1cc(/C=C2\CN(C(=O)c3ccccc3F)C/C(=C\c3cc(OC)c(OC)c(OC)c3)C2=O)cc(OC)c1OC    0.5

----------
Entries and their log(RatioIC50) values follow.
ASSAY_DETAILS: Selectivity index, ratio of IC50 for human HL7702 cells to IC50 for human NCI-H1650 cells
Type: toxicity
RESULT_TYPE: log(RatioIC50)

COc1cc(/C=C2\CN(C(=O)C(C)C)C/C(=C\c3cc(OC)c(OC)c(OC)c3)C2=O)cc(OC)c1OC    0.05
CCN1C/C(=C\c2cc(OC)c(OC)c(OC)c2)C(=O)/C(=C/c2cc(OC)c(OC)c(OC)c2)C1    0.19
COc1cc(/C=C2\CN(C)C/C(=C\c3cc(OC)c(OC)c(OC)c3)C2=O)cc(OC)c1OC    1.25
COc1cc(/C=C/C(=O)CC(=O)/C=C/c2ccc(O)c(OC)c2)ccc1O    -0.45

----------
ASSAY_DETAILS: Selectivity index, ratio of IC50 for human HL7702 cells to IC50 for human H460 cells
Type: toxicity
RESULT_TYPE: log(RatioIC50)

COc1cc(/C=C2\CN(C)C/C(=C\c3cc(OC)c(OC)c(OC)c3)C2=O)cc(OC)c1OC    1.42
COc1ccc(/C=C2\CNC/C(=C\c3ccc(OC)c(OC)c3)C2=O)cc1OC    0.37
COc1cc(/C=C2\CNC/C(=C\c3cc(OC)c(OC)c(OC)c3)C2=O)cc(OC)c1OC    0.7
CCN1C/C(=C\c2cc(OC)c(OC)c(OC)c2)C(=O)/C(=C/c2cc(OC)c(OC)c(OC)c2)C1    0.42
